System: Klebsiella pneumoniae
Experiment: Antimicrobial activity against carbapenem-resistant KPC-2 producing Klebsiella pneumoniae 469 ST 277 expressing beta-lactamase SHV-27, CTX-M-15 and OXA-4 by agar dilution method
Assay type: functional
recorded.endpoint: MIC (µg/mL)
Provide only the numeric value, understood in µg/mL.

State its MIC for this compound: C[C@@H](O)[C@H]1C(=O)N2C(C(=O)O)=C(S[C@@H]3CN[C@H](C(=O)Nc4cccc(C(=O)O)c4)C3)[C@H](C)[C@H]12
64

State its MIC for this compound: C[C@@H](O)[C@H]1C(=O)N2C(C(=O)O)=C(S[C@@H]3CN[C@H](C(=O)N(C)C)C3)[C@H](C)[C@H]12 [MEROPENEM]
32

State its MIC for this compound: C[C@@H](O)[C@H]1C(=O)N2C(C(=O)O)=C(SCCNC=N)C[C@H]12 [IMIPENEM ANHYDROUS]
32

Cited source: ChEMBL document CHEMBL1275589
